// provenance: PubChem BioAssay (NCATS)

Details: Ebola virus entry assay, green fluorescence channel
Results with a measured potency or affinity are listed apart. Activity calls are given as the source filed them. Calls come from the whole dose curve.
API: response.call in active, inactive

Worked set:
>>> df
                                   compound  label_class
0  CN1CCC[C@@H]1CCO[C@](C)(c1ccccc1)c1ccc(Cl)cc1     inactive
1  CN(C)[C@@H]1C(=O)C(C(N)=O)=C(O)[C@@]2(O)C(=O)C3=C(O)c4c(O)cccc4[C@@](C)(O)[C@H]3C[C@@H]12     inactive
2  O=C(O)COCCN1CCN(C(c2ccccc2)c2ccc(Cl)cc2)CC1 (stereo not given)     inactive
3    Cn1c(CCCC(=O)O)nc2cc(N(CCCl)CCCl)ccc21     inactive

Returns: the outcome recorded for COC(c1ccccc1)(c1ccccc1)[C@H](Oc1nc(C)cc(C)n1)C(=O)O in this assay.
inactive

State the result this test recorded for CC(C)[N+](C)(CCOC(=O)C1c2ccccc2Oc2ccccc21)C(C)C .
inactive
